System: human T-lymphocyte cells (CEM/0)
Assay: Cytostatic activity: inhibition of proliferation of CEM/0 cells
Assay type: cell-based
Settings: CCRF-CEM, 50% inhibitory concentration, cell proliferation, read-out: IC50 CEM/0
MEASURED_METRIC: IC50 (µg/mL)
Only the number, expressed in µg/mL, is required.

# count of solved cases: 2
                         compound_structure  measured_metric  measurement_unit  readout_number
0  CO[C@@H]1[C@@H](OC)[C@H](Sc2ccccc2)O[C@@H]2COC(=O)CCCC/C=C/CCCCC(=O)O[C@@H]12             IC50             µg/mL              23
1  CO[C@@H]1[C@@H](OC)[C@H](c2ccccc2)O[C@@H]2CO[C@@H](c3ccccc3)O[C@@H]12             IC50             µg/mL              81

Next compound, IC50 to be filled in.
**Q:** Please indicate IC50 recorded for "CO[C@@H]1[C@@H](OC)[C@H](Sc2ccccc2)O[C@@H]2COC(=O)CCCC/C=C\CCCCC(=O)O[C@@H]12"
**A:** 36
